Sourced from ChEMBL document CHEMBL4689842

Tested on: U2OS
Assay: Multiplex assay against U2OS
Assay type: toxicity, cell-based
Conditions: human, 24 h, 10 µM, compound concentration 10 uM, replicate 2
measured_attribute: Population Mitotic Cells (%)

compound=N#Cc1cnc(Nc2cc(NC[C@H]3CNCCO3)c(C(F)(F)F)cn2)cn1 measured_attribute="Population Mitotic Cells (%)" recorded_measurement=50
compound=CC(=O)c1cc(-c2cc(C(=O)NC3CC3)ccc2C)c2ncccn12 measured_attribute="Population Mitotic Cells (%)" recorded_measurement=51
compound=Cl.Cl.NC1(c2ccc(-c3nc4ccn5c(=O)[nH]nc5c4cc3-c3ccccc3)cc2)CCC1 measured_attribute="Population Mitotic Cells (%)" recorded_measurement=70
compound=COc1cc2c(NC3CCN(C(C)C)CC3)nc(N3CCC(F)(F)CC3)nc2cc1OCCCN1CCCC1 measured_attribute="Population Mitotic Cells (%)" recorded_measurement=9
compound=CC(C)(C)c1cnc(CSc2cnc(NC(=O)C3CCNCC3)s2)o1 measured_attribute="Population Mitotic Cells (%)" recorded_measurement=21
compound=Cc1cc2c(cc1N1C(=O)c3cccc4c(CCCO)ccc(c34)C1=O)n(C)c(=O)n2C measured_attribute="Population Mitotic Cells (%)" recorded_measurement=20
compound=COc1ccc(NS(=O)(=O)c2sc3ccc(Cl)cc3c2C)cc1N1CCNCC1.Cl measured_attribute="Population Mitotic Cells (%)" recorded_measurement=32
compound=CNC(=O)c1cc(Oc2ccc(NC(=O)Nc3cc(C(C)(C)C)nn3-c3ccc4ncccc4c3)c(F)c2)ccn1 measured_attribute="Population Mitotic Cells (%)" recorded_measurement=35
compound=CN(C)CCOc1ccc(-c2nc(-c3ccncc3)c(-c3ccc4c(c3)CC/C4=N\O)[nH]2)cc1 measured_attribute="Population Mitotic Cells (%)" recorded_measurement=50
compound="CN(C)C/C=C/C(=O)Nc1cc2c(Nc3ccc(F)c(Cl)c3)ncnc2cc1O[C@H]1CCOC1.O=C(O)/C=C\\C(=O)O.O=C(O)/C=C\\C(=O)O [AFATINIB DIMALEATE]" measured_attribute="Population Mitotic Cells (%)" recorded_measurement=6
